- PROTOCOL DESCRIPTION: Far-UV circular dichroism, helical content of T-domain peptides
- Format: physicochemical
- CONDITIONS: total number in peptide excluding tags minus residues in helices
We use 40 residues as the dividing line for no. of residues, unordered: on or above the line is Satisfied, below is Not satisfied.

>>> category("81–141 ^c: colicin E1 T-domain peptide, residues 81–141 (peptide, UniProt P02978 81-141, looked up, fragment) AKAKANRDALTQRLKDIVNEALRHNASRTPSATELAHANNAAMQAEDERLRLAKAEEKARK")
"Satisfied"
>>> category("41–120 ^b: colicin E1 T-domain peptide, residues 41–120 (peptide, UniProt P02978 41-120, looked up, fragment) GGSKSESSAAIHATAKWSTAQLKKTQAEQAARAKAAAEAQAKAKANRDALTQRLKDIVNEALRHNASRTPSATELAHANN")
"Satisfied"
>>> category("colicin E1 T-domain peptide T57–140 (domain or fragment) WSTAQLKKTQAEQAARAKAAAEAQAKAKANRDALTQRLKDIVNEALRHNASRTPSATELAHANNAAMQAEDERLRLAKAEEKAR")
"Not satisfied"
>>> category("100–190 ^b: colicin E1 T-domain peptide, residues 100–190 (peptide, UniProt P02978 100-190, looked up, fragment) EALRHNASRTPSATELAHANNAAMQAEDERLRLAKAEEKARKEAEAAEKAFQEAEQRRKEIEREKAETERQLKLAEAEEKRLAALSEEAKA")
"Not satisfied"
>>> category("colicin E1 T-domain peptide T1–120 (domain or fragment, UniProt P02978 1-120, looked up) METAVAYYKDGVPYDDKGQVIITLLNGTPDGSGSGGGGGKGGSKSESSAAIHATAKWSTAQLKKTQAEQAARAKAAAEAQAKAKANRDALTQRLKDIVNEALRHNASRTPSATELAHANN")
"Satisfied"
